Assay: Pharmacokinetics in ICR mice
Type: in vivo
Details: mouse, plasma, iv, 10 mg/kg
parameter: AUC(0-t) (ng·h/mL)

INSERT INTO assay_data (smiles_code, measure_unit, numeric_value) VALUES
  ('COc1ccc(-c2csc(N/N=C(\C)c3nc4ccccc4[nH]3)n2)cc1', 'ng·h/mL', 5890);

----------
Assay: Plasma protein binding
Format: in vitro ADME
Conditions: read-out: plasma protein binding rate (converted)
parameter: fraction unbound

INSERT INTO measurements (compound, parameter, numeric_value) VALUES
  ('COc1ccc(-c2csc(N/N=C(\C)c3nc4ccccc4[nH]3)n2)cc1 [SFI003]', 'fraction unbound', 0.586);
